test system: HL-60; assay: Cytotoxicity against human HL60 cells by MTT assay; assay type: functional, cell-based
Property Measured: IC50

> print(dat)
          structure.smiles.string  readout.value
1   O=C(c1ccc(Cl)cc1)c1nnn2c1NCC2    > 200 µg/mL
2  COc1ccc(C(=O)c2nnn3c2NCCC3)cc1    > 200 µg/mL
3    Cc1ccc(C(=O)c2nnn3c2OCC3)cc1     13.7 µg/mL
4              CC(=O)c1nnn2c1NCC2    > 200 µg/mL
5   COc1ccc(C(=O)c2nnn3c2NCC3)cc1    > 200 µg/mL

IC50 measured on Cc1ccc(C(=O)c2nnn3c2NCC3)cc1 = > 200 µg/mL

IC50 measured on O=C(c1ccc(Cl)cc1)c1nnn2c1NCCC2 = > 200 µg/mL

IC50 measured on O=C(c1ccccc1)c1nnn2c1NCC2 = > 200 µg/mL

IC50 measured on COc1ccc(C(=O)c2nnn3c2OCC3)cc1 = 21.1 µg/mL

IC50 measured on Cc1ccc(C(=O)c2nnn3c2NCCC3)cc1 = > 200 µg/mL

IC50 measured on O=C(c1ccccc1)c1nnn2c1OCC2 = 17.2 µg/mL

IC50 measured on O=C(c1ccc(Cl)cc1)c1nnn2c1OCC2 = 6.5 µg/mL

IC50 measured on O=C(c1ccccc1)c1nnn2c1NCCC2 = > 200 µg/mL

Where do these numbers come from? They come from ChEMBL document CHEMBL1221240.
